methodNotes: Selectivity ratio of Ki for mouse delta opioid receptor to Ki for guinea pig kappa opioid receptor
The threshold is inclusive: Ratio Ki of exactly 4 counts as label 1; values below receive label 0.

Here are 2 compounds together with their reported answers.
{"columns": ["compound", "class"],
 "data": [
  ["CN(C(=O)/C=C/c1ccoc1)[C@H]1CCC23Cc4ccc(O)cc4C2(CCN(CC2CC2)C3)C1 (some centres undefined)", "label 1"],
  ["CN(C(=O)CCc1ccccc1)[C@H]1CCC23Cc4ccc(O)cc4C2(CCN(CC2CC2)C3)C1 (some centres undefined)", "label 1"]
]}

Q: Confirm if Ratio Ki reported for the compound O=C(NCCc1ccccc1)C1=CCC23CCN(CC4CC4)CC2(C1)Cc1ccc(O)cc13 (centres undefined) is 4 or above.
Result: label 0

Q: Could you verify whether the entry CN(C(=O)/C=C/c1ccoc1)[C@@H]1CCC23Cc4ccc(O)cc4C2(CCN(CC2CC2)C3)C1 (some centres undefined) shows Ratio Ki of no less than 4?
Result: label 1

Q: Assess whether reported Ratio Ki for O=C(Nc1ccccc1)[C@@H]1CCC23CCN(CC4CC4)CC2(Cc2ccc(O)cc23)C1 (some centres undefined) sits at 4 or higher.
Result: label 1

Q: hey, is Ratio Ki for this one >= 4? O=C(Nc1ccccc1)[C@H]1CCC23CCN(CC4CC4)CC2(Cc2ccc(O)cc23)C1 (some centres undefined)
Result: label 0

* * *

systemName: Kappa-type opioid receptor (Cavia porcellus)
Sequence (P41144 whole entry): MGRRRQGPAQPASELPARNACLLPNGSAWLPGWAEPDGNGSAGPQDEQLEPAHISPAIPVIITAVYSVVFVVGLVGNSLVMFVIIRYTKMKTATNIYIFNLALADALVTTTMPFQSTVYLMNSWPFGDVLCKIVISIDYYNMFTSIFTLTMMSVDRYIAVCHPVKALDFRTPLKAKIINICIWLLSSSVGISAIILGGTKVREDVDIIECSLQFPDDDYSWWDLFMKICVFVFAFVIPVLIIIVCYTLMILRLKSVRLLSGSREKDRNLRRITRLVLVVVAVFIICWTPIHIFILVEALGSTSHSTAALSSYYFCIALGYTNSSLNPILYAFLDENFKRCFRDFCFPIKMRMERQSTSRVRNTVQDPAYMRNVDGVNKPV
Each record here notes measured pKi.
As a rule, pKi stands for the negative log10 of the concentration, concentration in M.

Example results:
{"columns": ["molecule", "systemName", "pKi"],
 "data": [
  ["O=C(NCc1ccccc1)C1=CCC23CCN(CC4CC4)CC2(C1)Cc1ccc(O)cc13 (stereo not drawn)", "Kappa-type opioid receptor (Cavia porcellus)", 7.14],
  ["CN(C(=O)/C=C/c1ccoc1)[C@H]1CCC23Cc4ccc(O)cc4C2(CCN(CC2CC2)C3)C1 (stereo partly drawn)", "Kappa-type opioid receptor (Cavia porcellus)", 9.08],
  ["O=C(NCCc1ccccc1)[C@H]1CCC23CCN(CC4CC4)CC2(Cc2ccc(O)cc23)C1 (stereo partly drawn)", "Kappa-type opioid receptor (Cavia porcellus)", 6.19],
  ["O=C(NCc1ccccc1)[C@@H]1CCC23CCN(CC4CC4)CC2(Cc2ccc(O)cc23)C1 (stereo partly drawn)", "Kappa-type opioid receptor (Cavia porcellus)", 7.72],
  ["O=C(NCCc1ccccc1)[C@@H]1CCC23CCN(CC4CC4)CC2(Cc2ccc(O)cc23)C1 (stereo partly drawn)", "Kappa-type opioid receptor (Cavia porcellus)", 6.77],
  ["CN(C(=O)/C=C/c1ccoc1)[C@@H]1CCC23Cc4ccc(O)cc4C2(CCN(CC2CC2)C3)C1 (stereo partly drawn)", "Kappa-type opioid receptor (Cavia porcellus)", 8.46]
]}

Shifting focus to the molecule that follows.
Q: Write down the reported pKi of CN(C(=O)CCc1ccccc1)[C@@H]1CCC23Cc4ccc(O)cc4C2(CCN(CC2CC2)C3)C1 (stereo partly drawn) , test system: Kappa-type opioid receptor (Cavia porcellus).
Result: 7.79

* * *

systemName: Kappa-type opioid receptor (Cavia porcellus)
pKi: −log10 of the molar value.
# if value of pKi reaches 7, tag satisfied; if it stays below, tag not satisfied

{"columns": ["compound", "class"],
 "data": [
  ["CN(C(=O)CCc1ccccc1)[C@H]1CCC23Cc4ccc(O)cc4C2(CCN(CC2CC2)C3)C1 (stereo not given in full)", "satisfied"]
]}

Q: Is reported pKi greater than or equal to 7 here: O=C(Nc1ccccc1)[C@@H]1CCC23CCN(CC4CC4)CC2(Cc2ccc(O)cc23)C1 (stereo not given in full)
Result: satisfied

Q: Hi team, for O=C(Nc1ccccc1)C1=CCC23CCN(CC4CC4)CC2(C1)Cc1ccc(O)cc13 (stereo not given) , is the recorded pKi at or above 7?
Result: satisfied

Q: Hi, just wondering whether O=C(NCCc1ccccc1)C1=CCC23CCN(CC4CC4)CC2(C1)Cc1ccc(O)cc13 (stereo not given) shows pKi of 7 or higher.
Result: not satisfied
